Assay: NCI Yeast Anticancer Drug Screen. Data for the mlh1 rad18 strain (AID 175)
Conditions: S. cerevisiae mlh1 rad18 strain growth inhibition; at 50.0 µM; hits give high values
About 79,000 compounds went through this panel and 15% of them were active in at least one assay; those are over-represented in the sample as a whole.
# label = 1 if growth inhibition >= 90% else 0

>>> label("CCC(c1ccccc1)N1C(=O)c2ccccc2S1(=O)=O (stereo not drawn)")
0
>>> label("CC(=O)OC1SC(C)(C)n2c1nc1ccccc1c2=O (stereo not drawn)")
0
>>> label("CCCC(=O)Oc1ccc([N+](=O)[O-])cc1")
0
>>> label("Nc1ccc(-c2ccc(Cl)cc2)cc1")
1
>>> label("O=c1cc(-c2ccccc2)oc(-c2ccccc2)c1")
0
>>> label("CC(=O)n1c(=S)n(C(C)=O)c2ccccc21")
0
>>> label("COc1cccc(C2c3cc4c(cc3OC(N3CCOCC3)C2C)OCO4)c1 (stereo not drawn)")
0
>>> label("c1ccc(NN=C(c2ccccc2)c2ccccc2)cc1")
1
>>> label("ClC1(Cl)c2ccccc2-c2ccccc21")
0
>>> label("CC(C)Cc1cc(O)cc2ccccc12")
1
>>> label("O=C1OC(c2ccccc2)(c2ccc(-c3ccccc3O)cc2)c2ccccc21 (stereo not drawn)")
1
>>> label("Cn1c(=O)c2c3oc(=O)cc(O)c3c(=O)n3c4ccccc4n(c1=O)c23")
0
>>> label("COC(=O)/C(=C/C=C(c1ccccc1)c1ccccc1)N(C(C)=O)C(C)=O")
1
>>> label("CC(=O)OC(C)C1C2=C(C(=O)CC1(C)O)C(=O)c1c(ccc(-c3ccc4c(c3O)C(=O)C3=C(C4=O)C(C(C)OC(C)=O)C(C)(O)CC3=O)c1O)C2=O (stereo not drawn)")
0
>>> label("CC=CCOc1cc(NC(=S)OC(C)C)ccc1Cl (mixture of isomers)")
0
>>> label("NC(=O)C#CC#CC#CCO")
1
>>> label("c1ccc(C2=NC(=c3ccc(=C4N=C(c5ccccc5)C(c5ccccc5)=N4)cc3)N=C2c2ccccc2)cc1")
1
>>> label("N#CC(C#N)=C1C(Br)=CCc2ccccc21")
1

---

Assay: NCI Yeast Anticancer Drug Screen. Data for the mec2-1 strain (AID 157)
Settings: S. cerevisiae mec2-1 strain, at 50.0 µM, hits give high values
Description: Growth inhibition of yeast strains with defined genetic alterations is measured as a screen for potential anti-cancer activity. Selected strains with alterations in DNA damage repair or cell cycle control were exposed to compounds and growth inhibition was measured relative to vehicle treated controls. The strain used in this assay is mec2-1
Compounds without any hit were thinned out: in the full panel of roughly 79,000, 15% have a hit. Activity calls are given as the source filed them. Rule as the data show it: active = growth inhibition above about 70%; inactive = the rest.
assay_readout: growth inhibition

>>> data_value("O=[N+]([O-])c1cc2ccc(O)cc2c2ccccc12")
"94.2% (active)"
>>> data_value("N#C/C(=C1/C(=O)c2ccccc2-c2ccccc21)c1ccccc1")
"98.2% (active)"
>>> data_value("CC1(C)OC2OC(/C=C/[N+](=O)[O-])C3OC(C)(C)OC3C2O1 (stereo unspecified)")
"10.9% (inactive)"
>>> data_value("CCCc1cc2c(cc1CN(C#N)Cc1cc3c(cc1CCC)OCO3)OCO2")
"96.3% (active)"
>>> data_value("NC(=S)SCCC(=O)O")
"-41.5% (inactive)"
>>> data_value("Cc1c(C(=O)N(CCO)CCO)[n+](=O)c2ccccc2n1[O-]")
"-5.35% (inactive)"
>>> data_value("O=C1Oc2ccccc2C(=O)/C1=C/N1C(=O)/C(=C/c2ccccc2)NC1=S")
"43.3% (inactive)"
>>> data_value("CSCCC(NC(=O)C(CCSC)NS(=O)(=O)Cc1ccccc1)C(=O)O (stereo unspecified)")
"99.6% (active)"
>>> data_value("COc1ccc(C(C)c2cc3c(cc2O)OCO3)cc1 (stereo unspecified)")
"98.7% (active)"
>>> data_value("COc1ccc2c(C#N)cc3c(c[n+](C)c4ccccc34)c2c1")
"86.4% (active)"
>>> data_value("CSC(=S)n1nc(-c2cccs2)c(N=Nc2ccccc2)c1C(F)(F)F")
"96.8% (active)"
